STUDY TARGET: Human Recombinant Matriptase 2 (Homo sapiens, UniProt Q8IU80)
Construct: purchased Enzo Life Sciences (an in-house preparation was also used) ALX-201-752-1
Sequence (Q8IU80 1-811): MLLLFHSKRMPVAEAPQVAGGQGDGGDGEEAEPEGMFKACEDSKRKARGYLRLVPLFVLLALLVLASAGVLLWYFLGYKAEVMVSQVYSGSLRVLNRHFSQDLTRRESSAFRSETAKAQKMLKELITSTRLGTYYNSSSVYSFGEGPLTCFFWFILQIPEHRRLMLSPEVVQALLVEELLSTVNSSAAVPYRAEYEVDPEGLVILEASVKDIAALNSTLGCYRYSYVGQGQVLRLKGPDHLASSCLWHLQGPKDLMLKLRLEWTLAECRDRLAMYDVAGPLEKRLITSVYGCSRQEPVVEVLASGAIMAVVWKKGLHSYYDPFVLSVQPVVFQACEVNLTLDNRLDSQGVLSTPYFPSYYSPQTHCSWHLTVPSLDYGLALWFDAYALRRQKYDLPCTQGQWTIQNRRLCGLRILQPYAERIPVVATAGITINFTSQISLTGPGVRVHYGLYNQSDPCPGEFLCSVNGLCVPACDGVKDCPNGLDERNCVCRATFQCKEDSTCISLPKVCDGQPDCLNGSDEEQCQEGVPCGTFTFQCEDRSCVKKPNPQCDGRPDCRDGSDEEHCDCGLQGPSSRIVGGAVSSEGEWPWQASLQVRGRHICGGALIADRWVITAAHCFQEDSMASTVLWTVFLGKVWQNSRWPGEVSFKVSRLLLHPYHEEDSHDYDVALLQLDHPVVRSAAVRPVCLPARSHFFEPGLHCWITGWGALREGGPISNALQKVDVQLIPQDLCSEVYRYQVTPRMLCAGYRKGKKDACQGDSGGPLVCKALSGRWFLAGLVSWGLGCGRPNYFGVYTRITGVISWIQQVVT
EXPERIMENT SUMMARY: Matriptase 2 fluorescence based inhibition assay, Method B (50 mM TRIS pH 7.5, 150 mM NaCl, 0.01% gelatin)
Type: biochemical
CONDITIONS: 1 uM compound; Assay Used = B; read-out: Mar-2 % inhibition at 1 uM
TEST READOUT: inhibition at 1 µM

COMPOUND: N=C(N)c1ccc2cc(C(=O)O)n(-c3cccc4ccccc34)c2c1
RESULT: 0 to 25%

COMPOUND: CC(C)(C)OC(=O)NC(=N)c1ccc2cc(C(=O)N3CC[C@H](NC(=O)OC(C)(C)C)C3)n(Cc3cccc4ccccc34)c2c1 (stereo in doubt)
RESULT: 0 to 25%

COMPOUND: N=C(N)c1ccc2cc(C(=O)N[C@H]3CC[C@H](N)CC3)n(Cc3ccc(C(N)=O)c4ccccc34)c2c1
RESULT: 50 to 75%

COMPOUND: N=C(N)c1ccc2cc(C(=O)NCCS(N)(=O)=O)n(Cc3cc(Oc4ncccn4)cc4ccccc34)c2c1
RESULT: 75 to 100%

###

STUDY TARGET: Human Recombinant Matriptase 2 (Homo sapiens, UniProt Q8IU80)
Construct: purchased Enzo Life Sciences (an in-house preparation was also used) ALX-201-752-1
EXPERIMENT SUMMARY: Matriptase 2 fluorescence based inhibition assay, Method B (50 mM TRIS pH 7.5, 150 mM NaCl, 0.01% gelatin)
Assay type: biochemical
CONDITIONS: read-out: Mar-2 % inhibition at 1 uM

MOLECULE: CN1CCC(NC(=O)c2cc3ccc(C(=N)NC(=O)Oc4ccc(F)cc4)cc3n2Cc2cc(Oc3ncccn3)cc3ccccc23)CC1 [Compound I-545]
inhibition at 1 µM: 25 to 50%

MOLECULE: COC(=O)c1cc2ccc(C(=N)NC(=O)Oc3ccccc3)cc2n1Cc1cccc2ccccc12 [Compound I-738]
inhibition at 1 µM: 0 to 25%

MOLECULE: N=C(NC(=O)Oc1ccccc1)c1ccc2cc(C(=O)OCc3ccccc3)n(Cc3cc(Oc4ncccn4)cc4ccccc34)c2c1 [Compound I-576]
inhibition at 1 µM: 0 to 25%

MOLECULE: CN1CCC(NC(=O)c2cc3ccc(C(=N)NC(=O)Oc4ccccc4)cc3n2Cc2cccc3ccccc23)CC1 [Compound I-782]
inhibition at 1 µM: 50 to 75%

MOLECULE: CN1CCC(NC(=O)c2cc3ccc(C(=N)NC(=O)Oc4ccccc4)cc3n2Cc2cc(Oc3ncccn3)cc3ccccc23)CC1 [Compound I-553]
inhibition at 1 µM: 0 to 25%

MOLECULE: COC(=O)NCCOC(=O)c1cc2ccc(C(=N)NC(=O)Oc3ccccc3)cc2n1Cc1cc(Oc2ncccn2)cc2ccccc12 [Compound I-554]
inhibition at 1 µM: 0 to 25%

MOLECULE: CCOC(=O)c1cc2ccc(C(=N)NC(=O)Oc3ccccc3)cc2n1Cc1cc(Oc2ccsc2)cc2ccccc12 [Compound I-579]
inhibition at 1 µM: 0 to 25%

MOLECULE: N=C(NC(=O)Oc1ccccc1)c1ccc2cc(C(=O)O)n(Cc3cc(Oc4ncccn4)cc4ccccc34)c2c1 [Compound I-551]
inhibition at 1 µM: 0 to 25%
